Cited source for all entries: patent US20250250357A1

Below is a list of entries, each paired with its recorded Maximum_MFI value.
- TARGET_ENTITY: T1, human MSLN-R3 on HEK293T-hMSLN-R3 recombinant cells (human, UniProt Q13421 487-606)
- T1 construct: the C-terminal limit is uncertain; also called human MSLN-R3 membrane protein
- TEST_SUMMARY: FACS, HEK293T-hMSLN-R3 cells
Record the value in MFI, omitting the unit from your answer.

| BINDER | READOUT_UNITS | Maximum_MFI |
| --- | --- | --- |
| Tab110 (scFv, not shown: small tags and cut ends, also called YP218 VH-(G4S)3-VL-his antibody; positive control) scFv: QQQLEESGGGLVKPEGSLTLTCKASGFDLGFYFYACWVRQAPGKGLEWIACIYTAGSGSTYYASWAKGRFTISKASSTTVTLQMTSLAAADTATYFCARSTANTRSTYYLNLWGPGTLVTVSSGGGGSGGGGSGGGGSDVVMTQTPASVSEPVGGTVTIKCQASQRISSYLSWYQQKPGQRPKLLIFGASTLASGVPSRFKGSGSGTEYTLTISDLECADAATYYCQSYAYFDSNNWHAFGGGTEVVV | MFI | 461 |
| F7.44.20-H4 (scFv, not shown: small tags and cut ends, also called S009-F7.44.20 humanized antibody VH1 + VL4) scFv: EVQLVQSGAEVKKPGASVKVSCKASGYTFTDYNMDWVRQAPGQGLEWMGDINPSTGGTIYNQKFNGRVTMTEDKSTSTVYMELSSLRSEDTAVYYCARRRIGTGYFDVWGQGTTVTVSSGGGGSGGGGSGGGGSEIVLTQSPATLSLSPGERATLSCSASSSVISSYLSWYQQKPGSSPRLLIYRTSNLASGIPARFSGSGSGTDYTLTISSLEPEDFAVYYCHQWSSFPYTFGGGTKVEIK | MFI | 1470 |
| F7.44.20-H12 (scFv, not shown: small tags and cut ends, also called S009-F7.44.20 humanized antibody VH2 + VL4) scFv: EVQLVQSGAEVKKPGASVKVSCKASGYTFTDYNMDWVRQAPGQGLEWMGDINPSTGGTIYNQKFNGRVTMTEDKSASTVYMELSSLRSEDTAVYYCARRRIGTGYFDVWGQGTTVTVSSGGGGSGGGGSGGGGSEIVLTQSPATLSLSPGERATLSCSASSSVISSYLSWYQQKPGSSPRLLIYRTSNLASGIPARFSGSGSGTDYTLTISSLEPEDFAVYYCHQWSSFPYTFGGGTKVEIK | MFI | 1410 |
| Tab111 (scFv, not shown: small tags and cut ends, also called YP218 VL-(G4S)3-VH-his antibody; positive control) scFv: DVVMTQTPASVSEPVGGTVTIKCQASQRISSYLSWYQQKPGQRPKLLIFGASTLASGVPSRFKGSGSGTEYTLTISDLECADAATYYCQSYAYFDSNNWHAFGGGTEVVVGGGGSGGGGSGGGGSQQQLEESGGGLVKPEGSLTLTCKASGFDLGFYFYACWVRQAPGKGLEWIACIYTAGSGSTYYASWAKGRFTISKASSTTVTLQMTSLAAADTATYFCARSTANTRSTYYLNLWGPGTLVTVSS | MFI | 2120 |

Note: attention shifts to another entry.
Request: Report Maximum_MFI for F7.44.20-H15 (scFv, not shown: small tags and cut ends, also called S009-F7.44.20 humanized antibody VH2a + VL3) scFv: EVQLVQSGAEVKKPGASVKVSCKASGYTFTDYNMDWVRQAPGQGLEWMGDINPSTGGTIYNQKFSGRVTMTEDKSASTVYMELSSLRSEDTAVYYCARRRIGTGYFDVWGQGTTVTVSSGGGGSGGGGSGGGGSEIVLTQSPATLSLSPGERATLSCSASSSVISSYLSWYQQKPGQSPRLLIYRTSNLASGIPARFSGSGSGTDYTLTISSLEPEDFAVYYCHQWSSFPYTFGGGTKVEIK please.
Response: 1500
